tested on: SKOV-3 human ovarian cancer cell line; experiment: MTS tumor cell viability assay; assay type: cell-based; conditions: agonist/antagonist call relative to siramesine

COMPOUND	Action
COc1cc(CCC(C)NCc2ccc(C(F)(F)F)cc2)ccc1O (centres unmarked)	Antagonist
COc1ccc(C)cc1NC(=O)OC1CC2CCCC(C1)N2CCCCCCN (centres unmarked)	Full agonist
Fc1ccc(-n2cc(CCCCN3CCC4(CC3)OCc3ccccc34)c3ccccc32)cc1	Full agonist
COc1cc2c(cc1OC)CN(CCCCNC(=O)c1cc(C)ccc1OC)CC2	Antagonist

====

target: sigma-1 receptor (Cavia porcellus, UniProt Q60492); construct: from tissue; host or cells: guinea pig brain membrane homogenates; assay: Competitive radioligand binding assay 2, guinea pig brain membrane homogenates; settings: read-out: Sigma-1 (Ki, nM) ±mean SEM
Sequence (Q60492 whole entry): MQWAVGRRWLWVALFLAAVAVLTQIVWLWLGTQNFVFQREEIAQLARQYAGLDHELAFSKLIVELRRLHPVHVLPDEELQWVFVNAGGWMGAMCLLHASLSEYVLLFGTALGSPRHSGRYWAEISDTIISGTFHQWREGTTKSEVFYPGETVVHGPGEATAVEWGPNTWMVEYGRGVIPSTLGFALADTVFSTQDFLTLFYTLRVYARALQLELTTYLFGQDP
MEASUREMENT KIND: Ki (nM)
Numbers only; they are read as nM.

Report Ki, nothing else, for this compound: COc1cc(CCC(C)NCc2ccc(C(F)(F)F)cc2)ccc1O (stereo not shown) [Compound II] 108
